- measured target: EGFR (d746-750) (Homo sapiens, UniProt P00533, DEL746-750)
- Construct: purchased SignalChem E10-122JG
- Sequence (P00533 with tags, fused parts or gaps DEL746-750 limits assumed): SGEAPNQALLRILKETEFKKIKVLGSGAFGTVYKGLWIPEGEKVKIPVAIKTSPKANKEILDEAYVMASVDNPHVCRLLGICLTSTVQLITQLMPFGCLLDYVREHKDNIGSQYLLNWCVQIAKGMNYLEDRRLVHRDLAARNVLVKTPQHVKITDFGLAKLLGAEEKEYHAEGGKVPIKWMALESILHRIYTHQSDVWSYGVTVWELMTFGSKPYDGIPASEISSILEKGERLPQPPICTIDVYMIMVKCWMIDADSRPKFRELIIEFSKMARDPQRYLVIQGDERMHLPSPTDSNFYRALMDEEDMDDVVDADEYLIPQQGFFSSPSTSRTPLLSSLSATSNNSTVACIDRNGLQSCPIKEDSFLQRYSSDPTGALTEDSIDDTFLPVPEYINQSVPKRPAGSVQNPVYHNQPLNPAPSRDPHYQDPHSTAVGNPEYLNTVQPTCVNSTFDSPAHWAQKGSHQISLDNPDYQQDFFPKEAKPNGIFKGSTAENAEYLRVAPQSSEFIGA
- method: Biochemical EGFR inhibition assay (Caliper mobility shift), EGFR (d746-750)
- particulars: read-out: Enz EGFR_Exon19-del746-750 IC50
measurement type: IC50

Completed entries (count: 4):
{"compound": "C[C@H](CN(C)C)Oc1cc(-c2cnn(C)c2)cc2ncnc(Nc3ccc4cccnc4c3)c12", "IC50": "< 10 nM"}
{"compound": "CO[C@H]1CCN(c2cc3ncnc(Nc4ccc5ncccc5c4F)c3c(OC(C)CN(C)C)n2)C1 (stereo in doubt)", "IC50": "< 10 nM"}
{"compound": "CN1CCC(Oc2cc(-c3cnn(C)c3)cc3ncnc(Nc4ccc5ncccc5c4F)c23)CC1", "IC50": "< 10 nM"}
{"compound": "C[C@H](CN(C)C)Oc1cc(-c2cnn(C)c2)cc2nc[n+]([O-])c(Nc3ccc4ncccc4c3F)c12 (single isomer, unassigned)", "IC50": "10.1 to 50 nM"}

Read off the recorded IC50 for COc1cc(O[C@H](C)C2COC2)c2c(Nc3ccc4ncccc4c3F)ncnc2c1
< 10 nM

Read off the recorded IC50 for C[C@H](CN(C)C)Oc1cc(N2CC[C@H](C(C)(C)O)C2)cc2ncnc(Nc3c(F)cc4ncccc4c3F)c12
< 10 nM

Read off the recorded IC50 for CNC[C@@H](C)Oc1cc(-c2cnn(C)c2)cc2ncnc(Nc3ccc4ncccc4c3F)c12
10.1 to 50 nM

Read off the recorded IC50 for CCOc1cc2ncnc(Nc3ccc4ncccc4c3F)c2c(O[C@H](C)CN(C)C)n1
10.1 to 50 nM

Read off the recorded IC50 for C[C@H](CN(C)C)Oc1cc(N2CCOC3(CC3)C2)cc2ncnc(Nc3ccc4ncccc4c3F)c12
10.1 to 50 nM

Read off the recorded IC50 for CN1CCC[C@@H](Oc2cc(-c3cnn(C)c3)cc3ncnc(Nc4ccc5ncccc5c4F)c23)C1
< 10 nM
